MEASUREMENT_TARGET: Cannabinoid receptor 1 (Rattus norvegicus) (UniProt P20272)
Sequence (P20272 whole entry): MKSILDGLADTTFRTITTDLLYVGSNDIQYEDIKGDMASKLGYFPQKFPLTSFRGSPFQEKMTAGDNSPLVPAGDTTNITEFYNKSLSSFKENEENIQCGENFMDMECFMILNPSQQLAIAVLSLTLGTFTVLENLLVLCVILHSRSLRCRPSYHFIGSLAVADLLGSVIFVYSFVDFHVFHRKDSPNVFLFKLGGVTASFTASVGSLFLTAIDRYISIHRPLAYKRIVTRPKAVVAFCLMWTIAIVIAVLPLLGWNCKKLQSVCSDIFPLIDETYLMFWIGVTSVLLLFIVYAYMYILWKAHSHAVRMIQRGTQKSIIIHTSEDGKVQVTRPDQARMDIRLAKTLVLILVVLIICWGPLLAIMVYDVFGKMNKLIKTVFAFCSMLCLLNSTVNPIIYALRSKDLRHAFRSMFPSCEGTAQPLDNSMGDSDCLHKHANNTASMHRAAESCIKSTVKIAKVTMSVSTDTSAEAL
ASSAY_TEXT: Displacement of [3H]CP-55940 from Sprague-Dawley rat brain CB1 receptor at > 10 uM after 90 mins by scintillation counting analysis
For each record, check the reported Activity: if it is below 40% write Criterion met, else write Criterion not met.

STRUCTURE_SMILES	GROUP_LABEL
CCCCCn1cc(C(=O)NC23CC4CC(CC(C4)C2)C3)c(=O)n2nc(-c3cc(C)cs3)cc12	Criterion met

Dear reviewer, please state whether "CCCCCn1cc(C(=O)NC2CCCCC2)c(=O)n2nc(-c3ccccc3C)cc12" has Activity strictly beneath 40%.
Criterion met

Dear reviewer, please state whether "CCCCCn1cc(C(=O)NC2CCCCCC2)c(=O)n2nc(-c3ccccc3C)cc12" has Activity strictly beneath 40%.
Criterion not met

Dear reviewer, please state whether "CCCCCn1cc(C(=O)NC23CC4CC(CC(C4)C2)C3)c(=O)n2nc(-c3ccc(C)cc3)cc12" has Activity strictly beneath 40%.
Criterion not met

* * *

MEASUREMENT_TARGET: Cannabinoid receptor 1 (Homo sapiens)
Sequence (P21554 whole entry): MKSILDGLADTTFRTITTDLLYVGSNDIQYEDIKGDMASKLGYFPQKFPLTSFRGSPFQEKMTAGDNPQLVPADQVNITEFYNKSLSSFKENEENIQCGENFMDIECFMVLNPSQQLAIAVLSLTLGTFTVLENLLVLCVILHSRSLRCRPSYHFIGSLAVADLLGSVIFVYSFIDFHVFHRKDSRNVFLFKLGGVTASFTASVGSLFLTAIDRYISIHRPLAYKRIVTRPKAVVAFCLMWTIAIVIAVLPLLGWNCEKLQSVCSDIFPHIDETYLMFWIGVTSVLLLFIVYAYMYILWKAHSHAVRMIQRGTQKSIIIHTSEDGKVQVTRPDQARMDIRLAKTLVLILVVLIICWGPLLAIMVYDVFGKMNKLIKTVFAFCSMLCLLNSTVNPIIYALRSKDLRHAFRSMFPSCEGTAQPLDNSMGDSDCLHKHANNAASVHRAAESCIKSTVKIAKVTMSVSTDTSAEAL
MEASURED_ATTRIBUTE: Ki (nM)
Could you give me the number in nM? Just the number is fine.

COMPOUND	Ki (nM)
CCCCCn1cc(C(=O)NC2CCCCCC2)c(=O)n2nc(-c3ccccc3)cc12	825

We next turn to a different compound, shown below.
Given CCCCCn1cc(C(=O)NC2CCC(C)CC2)c(=O)n2nc(C)cc12 (stereo not given) , state its recorded Ki.
2430

* * *

MEASUREMENT_TARGET: Cannabinoid receptor 1 (Homo sapiens)
ASSAY_TEXT: Displacement of [3H]CP-55940 from human CB1 receptor expressed in CHO cell membrane at > 10 uM after 90 mins by scintillation counting analysis
Assay type: cell membranes
MEASURED_ATTRIBUTE: Activity (%)
Could you give me the number in %? Just the number is fine.

Consider the reported Activity for these molecules:
STRUCTURE_SMILES	MEASUREMENT_TARGET	UNIT_SYMBOL	Activity
CCCCCn1cc(C(=O)NC2CCCCCC2)c(=O)n2nc(-c3ccccc3Cl)cc12	Cannabinoid receptor 1 (Homo sapiens)	%	35
CCCCCn1cc(C(=O)NC23CC4CC(CC(C4)C2)C3)c(=O)n2nc(-c3ccccc3Cl)cc12	Cannabinoid receptor 1 (Homo sapiens)	%	41
CCCCCn1cc(C(=O)NC23CC4CC(CC(C4)C2)C3)c(=O)n2nc(-c3ccc(Cl)cc3)cc12	Cannabinoid receptor 1 (Homo sapiens)	%	13

We next turn to a different molecule, shown below.
Please state recorded Activity (tested on Cannabinoid receptor 1 (Homo sapiens)) of "CCCCCn1cc(C(=O)NC2CCCCC2)c(=O)n2nc(-c3ccccc3C)cc12"
16

* * *

Organism: Homo sapiens
ASSAY_TEXT: Selectivity index, ratio of Ki for human CB1 receptor to Ki for human CB2 receptor
Consider the following compounds and their measured Ratio Ki readings.

Consider the reported Ratio Ki for these compounds:
COMPOUND	MEASURED_ATTRIBUTE	MEASURED_RESULT
CCCCCn1cc(C(=O)NC23CC4CC(CC(C4)C2)C3)c(=O)n2nc(-c3ccco3)cc12	Ratio Ki	> 2030
CCCCCn1cc(C(=O)NC2CCC(C)CC2)c(=O)n2nc(C)cc12 (centres undefined)	Ratio Ki	23
CCCCCn1cc(C(=O)NC23CC4CC(CC(C4)C2)C3)c(=O)n2nc(CC)cc12	Ratio Ki	143

Given "CCCCCn1cc(C(=O)NC23CC4CC(CC(C4)C2)C3)c(=O)n2nc(-c3ccccc3)cc12" , state its recorded Ratio Ki.
> 3910

Given "CCCCCn1cc(C(=O)NC23CC4CC(CC(C4)C2)C3)c(=O)n2nc(-c3c(Cl)cccc3Cl)cc12" , state its recorded Ratio Ki.
> 102

Given "CCCCCn1cc(C(=O)NC2CCCCC2)c(=O)n2nc(-c3ccc(C)cc3)cc12" , state its recorded Ratio Ki.
> 175

Given "CCCCCn1cc(C(=O)NC2CCCCC2)c(=O)n2nc(-c3ccco3)cc12" , state its recorded Ratio Ki.
> 1050

Given "CCCCCn1cc(C(=O)NC23CC4CC(CC(C4)C2)C3)c(=O)n2nc(-c3ccc(C)cc3)cc12" , state its recorded Ratio Ki.
> 2930

Given "CCCCCn1cc(C(=O)NC2CCCCCC2)c(=O)n2nc(-c3ccco3)cc12" , state its recorded Ratio Ki.
> 1520

Given "CCCCCn1cc(C(=O)NC2CCCCCC2)c(=O)n2nc(-c3ccc(C)cc3)cc12" , state its recorded Ratio Ki.
> 970

Given "CCCCCn1cc(C(=O)NCc2ccccc2)c(=O)n2nc(C)cc12" , state its recorded Ratio Ki.
9.2

Given "CCCCCn1cc(C(=O)NC23CC4CC(CC(C4)C2)C3)c(=O)n2nc(-c3cc(C)cs3)cc12" , state its recorded Ratio Ki.
> 666

Given "CCCCCn1cc(C(=O)NC23CC4CC(CC(C4)C2)C3)c(=O)n2nc(-c3ccccc3Cl)cc12" , state its recorded Ratio Ki.
> 1610

Given "CCCCCn1cc(C(=O)NC23CC4CC(CC(C4)C2)C3)c(=O)n2nc(-c3ccc(Cl)cc3Cl)cc12" , state its recorded Ratio Ki.
> 333

Given "CCCCCn1cc(C(=O)NC2CCCCC2)c(=O)n2nc(C)cc12" , state its recorded Ratio Ki.
58
